Values compiled from paper PMC10700596.

# measurement-protocol: in vivo
# Assay type: in vivo, mice
# condition-set: male, CD-1, mouse, brain, ip, 10 mg/kg, mice, IP 10 mg/kg, brain, 360 min, individual animals; read-out: Brain concentration, Final (individual sample)
measured-endpoint: concentration at 360 min (ng/g)
// units = ng/g; emit number, no label

Ask: Which value of concentration at 360 min has been reported for CCc1nc2c(C)nc(C)cc2n1-c1ccc(CCNC(=O)NS(=O)(=O)c2ccc(C)cc2)cc1 [Grapiprant, reference compound] in the records?
Reply: 0

====

# measurement-protocol: in vivo
# Format: in vivo, mice
# condition-set: male, CD-1, mouse, plasma, po, 30 mg/kg, mice, PO 30 mg/kg, plasma, 60 min, single animals; read-out: Plasma concentration, Final (individual mouse)
measured-endpoint: concentration at 60 min (µg/mL)
// units = µg/mL; emit number, no label

Ask: Which value of concentration at 60 min has been reported for O=C([O-])C1CCC2(CC1)CC(Nc1ncnc3[nH]c4c(F)cccc4c13)C2.[Na+] (stereo not shown) in the records?
Reply: 24.4
